target: Bet BRD4 full length bromo-domain protein (Homo sapiens, UniProt O60885); assay: Bet bromodomain TR-FRET assay (displacement of acetyl histone peptide); assay type: binding; details: Bet BRD4 full length bromodomain protein, 300 nM acetyl histone peptide substrate, read-out: IC50
pIC50: −log10 of the molar value.
Quick reference for pIC50 among some compounds

{"compound": "COc1ccccc1S(=O)(=O)Nc1cc(OCc2cccnc2)c2c(c1)C1(CCC1)C(=O)N2 [Compound 157]", "pIC50": "> 6.22"}
{"compound": "CN1CCCC(Nc2cc(NS(=O)(=O)c3ccc(F)cc3F)cc3c2NC(=O)C32CCC2)C1 (single isomer, unassigned) [Compound 35]", "pIC50": "6.00 to 6.22"}
{"compound": "O=C(Nc1cc(C2CC2)c2c(c1)C1(CCC1)C(=O)N2)c1ccc(F)cc1 [Compound 75a]", "pIC50": "6.00 to 6.22"}
{"compound": "O=C1Nc2c(OCCn3cccn3)cc(NS(=O)(=O)c3ccc(Cl)cc3F)cc2C12CCC2 [Compound 161]", "pIC50": "> 6.22"}
{"compound": "O=C1Nc2c(NC3CCCCC3)cc(NS(=O)(=O)c3ccc(F)cc3F)cc2C12CCC2 [Compound 20]", "pIC50": "< 6.00"}
{"compound": "O=C1Nc2c(OC3CCNCC3)cc(NS(=O)(=O)c3ccc(Cl)cc3F)cc2C12CCC2 [Compound-197]", "pIC50": "> 6.22"}
{"compound": "COc1ccc(S(=O)(=O)Nc2cc(Cc3cccc(F)c3)c3c(c2)C2(CCC2)C(=O)N3)c(F)c1 [Compound 95]", "pIC50": "> 6.22"}
{"compound": "CN1CCC(NC(=O)c2cc(NS(=O)(=O)N3CCCCC3)cc3c2NC(=O)C32CCC2)CC1 [Compound 85]", "pIC50": "< 6.00"}
{"compound": "CCN1CCC(Nc2cc(NS(=O)(=O)c3ccc(F)cc3F)cc3c2NC(=O)C32CCC2)CC1 [Compound 24]", "pIC50": "> 6.22"}
{"compound": "COc1cc(F)ccc1S(=O)(=O)Nc1cc(Cc2cccc(F)c2)c2c(c1)C1(CCC1)C(=O)N2 [Compound 96]", "pIC50": "> 6.22"}
{"compound": "CN1CCC(NC(=O)c2cc(NS(=O)(=O)C3CCCCC3)cc3c2NC(=O)C32CCC2)CC1 [Compound 83]", "pIC50": "6.00 to 6.22"}
{"compound": "CN1CCC(NC(=O)c2cc(NS(=O)(=O)c3ccc(Cl)cc3F)cc3c2NC(=O)C32CCC2)CC1 [Compound-211]", "pIC50": "6.00 to 6.22"}
{"compound": "O=C1Nc2c(OC3CCNCC3F)cc(NS(=O)(=O)c3ccc(Cl)cc3F)cc2C12CCC2 (stereo not drawn) [compound 198]", "pIC50": "> 6.22"}
{"compound": "COc1ccc(S(=O)(=O)Nc2cc(Cc3ccccc3)c3c(c2)C2(CCC2)C(=O)N3)c(F)c1 [Compound 93]", "pIC50": "> 6.22"}
{"compound": "CCN(c1cc(OC2CCN(C)CC2)c2c(c1)C1(CCC1)C(=O)N2)S(=O)(=O)c1ccccc1OC [compound 179]", "pIC50": "< 6.00"}
{"compound": "COc1ccccc1S(=O)(=O)Nc1cc(OC2CCOCC2)c2c(c1)C1(CCC1)C(=O)N2 [Compound 141]", "pIC50": "> 6.22"}
{"compound": "COc1ccc(F)cc1S(=O)(=O)Nc1cc(OC2CCN(C)CC2)c2c(c1)C1(CCC1)C(=O)N2 [Compound 129]", "pIC50": "> 6.22"}
{"compound": "O=C(Nc1cc(NS(=O)(=O)c2ccc(F)cc2F)cc2c1NC(=O)C21CCC1)c1ccncc1 [Compound 45]", "pIC50": "< 6.00"}
